Measured IC50 values are reported for all entries that follow.
system: RKO; assay: cells; assay type: functional, cell-based, Homo sapiens; conditions: Homo sapiens, RKO;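 note: growth inhibition of human RKO cells, read out with a cell viability assay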
Description: SANGER: Inhibition of human RKO cell growth in a cell viability assay.
Counter-ions that a name gives are not always drawn.

Example entries and their recorded answers appear below.
> print(dat)
                                   compound  test.system  reported.measurement
1  N#Cc1c(O)c2c(-c3ccc(-c4ccccc4O)cc3)csc2[nH]c1=O          RKO             > 1.02 µM
2  COc1cc2ncn(-c3cc(OCc4ccccc4S(C)(=O)=O)c(C#N)s3)c2cc1OC [GSK-319347A]          RKO                > 5 µM
3  C#Cc1cccc(Nc2ncnc3cc(OCCOC)c(OCCOC)cc23)c1          RKO                > 2 µM

Quick check: IC50 of COC1=CC(c2cc3ccccc3[nH]2)=N/C1=C\c1[nH]c(C)cc1C [OBATOCLAX MESYLATE] ?
< 0.0625 µM

====

Measured IC50 values are reported for all entries that follow.
tested on: TE-9; assay: cells; type: functional, cell-based, Homo sapiens; conditions: Homo sapiens, TE-9;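 note: cell growth inhibition, measured with a cell viability readout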
Description: SANGER: Inhibition of human TE-9 cell growth in a cell viability assay.

Example entries and their recorded answers appear below.
> print(dat)
                                   molecule  reported.measurement
1  C=C(c1ccc(C(=O)O)cc1)c1cc2c(cc1C)C(C)(C)CCC2(C)C [BEXAROTENE]                > 8 µM
2  COc1cc(-c2nn([C@H]3CC[C@H](N4CCN(C(C)=O)CC4)CC3)c3ncnc(N)c23)ccc1NC(=O)c1cc2ccccc2n1C             > 5.12 µM
3  CC1(C)CNc2cc(NC(=O)c3cccnc3NCc3ccncc3)ccc21 [MOTESANIB]                > 2 µM
4  Cc1cn(-c2cc(NC(=O)c3ccc(C)c(Nc4nccc(-c5cccnc5)n4)c3)cc(C(F)(F)F)c2)cn1 [NILOTINIB]                > 2 µM

Quick check: IC50 of CCN(CC)CCNC(=O)c1c(C)[nH]c(/C=C2\C(=O)Nc3ccc(F)cc32)c1C [SUNITINIB] ?
> 8 µM

Quick check: IC50 of OCCCNc1cc(-c2ccnc(Nc3cccc(Cl)c3)n2)ccn1 ?
> 0.256 µM

====

tested on: MOLT-13; assay: cells; assay type: functional, cell-based, Homo sapiens; details: Homo sapiens, MOLT-13
Description: SANGER: Inhibition of human MOLT-13 cell growth in a cell viability assay.
pIC50: −log10 of the molar value.
property: pIC50

Example entries and their recorded answers appear below.
> print(dat)
                           smiles.structure  reported.measurement
1  Cc1cn(-c2cc(NC(=O)c3ccc(C)c(Nc4nccc(-c5cccnc5)n4)c3)cc(C(F)(F)F)c2)cn1                < 5.70
2  CC1(C)CNc2cc(NC(=O)c3cccnc3NCc3ccncc3)ccc21                < 5.70

Quick check: pIC50 of Cn1cnc2c(F)c(Nc3ccc(Br)cc3Cl)c(C(=O)NOCCO)cc21 ?
< 5.40

====

test system: BC1 cell line; test: SANGER: Inhibition of human BC-1 cell growth in a cell viability assay.; format: functional, cell-based; conditions: Homo sapiens, BC1
Measured IC50 values are reported for all entries that follow.

Example entries and their recorded answers appear below.
smiles structure	reported measurement
Cc1ccc(-c2c(C(=O)CCl)n(CCCO)c3ncnc(N)c23)cc1	> 4 µM
C#Cc1cccc(Nc2ncnc3cc(OCCOC)c(OCCOC)cc23)c1	> 2 µM
N[C@@H](CSC(c1ccccc1)(c1ccccc1)c1ccccc1)C(=O)O	> 5.12 µM

Quick check: IC50 of CC(=O)O[C@H]1C(=O)[C@@]2(C)[C@H]([C@H](OC(=O)c3ccccc3)[C@]3(O)C[C@H](OC(=O)[C@H](O)[C@@H](NC(=O)c4ccccc4)c4ccccc4)C(C)=C1C3(C)C)[C@]1(OC(C)=O)CO[C@@H]1C[C@@H]2O ?
> 0.102 µM

====

test system: OE33; assay: cells; format: functional, cell-based, Homo sapiens; details: Homo sapiens, OE33;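 note: growth inhibition of human OE33 cells, measured by a cell viability assay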
Description: SANGER: Inhibition of human OE33 cell growth in a cell viability assay.
Measured IC50 values are reported for all entries that follow.

compound	IC50
C=C(c1ccc(C(=O)O)cc1)c1cc2c(cc1C)C(C)(C)CCC2(C)C [BEXAROTENE]	> 8 µM

Quick check: IC50 of CCC/C=C/C=C/C(=O)O[C@H]1/C(=C/C(=O)OC)C[C@H]2C[C@H]([C@@H](C)O)OC(=O)C[C@H](O)C[C@@H]3C[C@H](OC(C)=O)C(C)(C)[C@](O)(C[C@@H]4C/C(=C/C(=O)OC)C[C@H](/C=C/C(C)(C)[C@]1(O)O2)O4)O3 [BRYOSTATIN 1] ?
> 0.008 µM

Quick check: IC50 of CS(=O)(=O)c1ccc(C(=O)Nc2ccc(Cl)c(-c3ccccn3)c2)c(Cl)c1 [VISMODEGIB] ?
> 10 µM

Quick check: IC50 of CC(C)CCN1c2nc(Nc3cc(F)c(O)c(F)c3)ncc2N(C)C(=O)C1C (centres undefined) ?
> 5 µM

====

test system: DBTRG-05MG; assay: cells; type: functional, cell-based, Homo sapiens; conditions: Homo sapiens, DBTRG-05MG;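 note: cell viability assay measuring growth inhibition of human DBTRG-05MG cells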
Description: SANGER: Inhibition of human DBTRG-05MG cell growth in a cell viability assay.
Measured IC50 values are reported for all entries that follow.

Example entries and their recorded answers appear below.
> print(dat)
                                   compound  property  reported.measurement
1  COc1cc2c(Nc3ccc(NC(=O)c4ccccc4)cc3)ncnc2cc1OCCCN1CCOCC1      IC50                > 4 µM
2  CC(C)c1ccccc1Cc1cc(C(=O)Nc2ccc(S(=O)(=O)c3ccccc3C(C)(C)C)cc2)c(O)c(O)c1O      IC50               1.46 µM
3  CCN(CC)CCCCNc1ncc2cc(-c3cc(OC)cc(OC)c3)c(NC(=O)NC(C)(C)C)nc2n1 [PD-173074]      IC50                > 2 µM
4  CC(C)CCN1c2nc(Nc3cc(F)c(O)c(F)c3)ncc2N(C)C(=O)C1C (stereo not given)      IC50                > 5 µM

# ---- query compound ----
Quick check: IC50 of C=C(c1ccc(C(=O)O)cc1)c1cc2c(cc1C)C(C)(C)CCC2(C)C [BEXAROTENE] ?
> 8 µM

====

Measured IC50 values are reported for all entries that follow.
test system: EOL1; test: cells; type: functional, cell-based, Homo sapiens; details: Homo sapiens, EOL1;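 note: growth inhibition of EoL-1 cells, read out by a cell viability assay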
Description: SANGER: Inhibition of human EoL-1-cell cell growth in a cell viability assay.

Example entries and their recorded answers appear below.
compound	IC50
COc1cc2ncn(-c3cc(OCc4ccccc4S(C)(=O)=O)c(C#N)s3)c2cc1OC [GSK-319347A]	> 5000 nM
CCC/C=C/C=C/C(=O)O[C@H]1/C(=C/C(=O)OC)C[C@H]2C[C@H]([C@@H](C)O)OC(=O)C[C@H](O)C[C@@H]3C[C@H](OC(C)=O)C(C)(C)[C@](O)(C[C@@H]4C/C(=C/C(=O)OC)C[C@H](/C=C/C(C)(C)[C@]1(O)O2)O4)O3 [BRYOSTATIN 1]	> 8 nM
Cc1cn(-c2cc(NC(=O)c3ccc(C)c(Nc4nccc(-c5cccnc5)n4)c3)cc(C(F)(F)F)c2)cn1 [NILOTINIB]	< 7.81 nM

# ---- query compound ----
Quick check: IC50 of Nc1ccn([C@@H]2O[C@H](CO)[C@@H](O)C2(F)F)c(=O)n1 [GEMCITABINE] ?
< 4 nM

====

Measured pIC50 values are reported for all entries that follow.
tested on: MC116; experiment: cells; type: functional, cell-based, Homo sapiens; details: Homo sapiens, MC116
Description: SANGER: Inhibition of human MC116 cell growth in a cell viability assay.
pIC50: −log10 of the molar value.

smiles structure	pIC50
CC1(C)CNc2cc(NC(=O)c3cccnc3NCc3ccncc3)ccc21	< 5.70
Oc1ccc2ccccc2c1SSc1c(O)ccc2ccccc12	< 4.49
COc1cc2c(Nc3ccc(NC(=O)c4ccccc4)cc3)ncnc2cc1OCCCN1CCOCC1	< 5.40
CCN(CC)CCCCNc1ncc2cc(-c3cc(OC)cc(OC)c3)c(NC(=O)NC(C)(C)C)nc2n1	< 5.70

# ---- query compound ----
Quick check: pIC50 of CCC/C=C/C=C/C(=O)O[C@H]1/C(=C/C(=O)OC)C[C@H]2C[C@H]([C@@H](C)O)OC(=O)C[C@H](O)C[C@@H]3C[C@H](OC(C)=O)C(C)(C)[C@](O)(C[C@@H]4C/C(=C/C(=O)OC)C[C@H](/C=C/C(C)(C)[C@]1(O)O2)O4)O3 ?
< 8.10

====

system: ES6; assay: cells; type: functional, cell-based, Homo sapiens; details: Homo sapiens, ES6
Description: SANGER: Inhibition of human ES6 cell growth in a cell viability assay.
property: IC50

Example entries and their recorded answers appear below.
> print(dat)
                           smiles.structure  property  reported.measurement
1  CC[C@H](CO)Nc1nc(NCc2ccccc2)c2ncn(C(C)C)c2n1      IC50               > 16 µM
2        Oc1ccc2ccccc2c1SSc1c(O)ccc2ccccc12      IC50               > 32 µM

# ---- query compound ----
Quick check: IC50 of CN(C)C(=N)NC(=N)N ?
> 20000 µM
